Listing of recorded Ratio by entry.
- system: Integrin alpha-V/beta-3 (Homo sapiens) (UniProt P05106+P06756)
- experimental protocol: Inhibition of fibrinogen binding to immobilized vitronectin receptor
- Assay type: protein-complex assay
- Design: reference not given here

A selection of reference data follows.
{"mol smiles": "NC(N)=NCCC[C@H](N)C(=O)Nc1cccc(C(=O)NCCC(=O)O)c1", "system": "Integrin alpha-V/beta-3 (Homo sapiens) (UniProt P05106+P06756)", "measurement type": "Ratio", "recorded result": 900}
{"mol smiles": "N=C(N)NCCC[C@H](N)C(=O)NCC(=O)N[C@@H](CC(=O)O)C(=O)N[C@@H](CO)C(=O)O", "system": "Integrin alpha-V/beta-3 (Homo sapiens) (UniProt P05106+P06756)", "measurement type": "Ratio", "recorded result": 1}

The reported Ratio of the compound "N=C(N)c1ccc(C(=O)NCCC(=O)N[C@@H](CC(=O)O)C(=O)N[C@@H](Cc2ccccc2)C(=O)O)cc1" was 4500
